Assay: recombinant UMI read abundance after kanamycin selection (control-corrected) (log10(CPM+1)); higher = more efficient recombination; extreme values may be limits of the assay; sequences stand for … in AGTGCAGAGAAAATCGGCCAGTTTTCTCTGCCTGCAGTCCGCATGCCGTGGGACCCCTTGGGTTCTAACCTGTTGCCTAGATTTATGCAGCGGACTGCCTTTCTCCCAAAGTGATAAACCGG…AGGTTGGTTTCACT; site = the 11-nt donor;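 also: IS621 bridge recombinase in Escherichia coli cells against a fixed T5 target plasmid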

residue_sequence: CCTTTGGCATGGACCGGTTTTCCCGGTAATCCGTATTTGCT (site CCTTTGGCTAG)
recombinant UMI read abundance (log10): 0.00901
//
residue_sequence: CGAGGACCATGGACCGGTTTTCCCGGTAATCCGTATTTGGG (site CGAGGACCTAC)
recombinant UMI read abundance (log10): 0
//
residue_sequence: CGAGTAGCATGGACCGGTTTTCCCGGTAATCCGTATTTGCC (site CGAGTAGCTGG)
recombinant UMI read abundance (log10): 1.66
//
residue_sequence: CGGACATCATGGACCGGTTTTCCCGGTAATCCGTATTTGCT (site CGGACATCTCG)
recombinant UMI read abundance (log10): 0.0134
//
residue_sequence: GCTTACCCATGGACCGGTTTTCCCGGTAATCCGTATTTGAT (site GCTTGCCCTAT)
recombinant UMI read abundance (log10): 0.0186
//
residue_sequence: CGAGGTCCATGGACCGGTTTTCCCGGTAATCCGTATTTGGG (site CGAGGCCCTCC)
recombinant UMI read abundance (log10): 0.0189
//
residue_sequence: CCTTTCTCATGGACCGGTTTTCCCGGTAATCCGTATTTGGG (site CCATTCTCTCC)
recombinant UMI read abundance (log10): 0.00388
//
residue_sequence: CCCTTATCATGGACCGGTTTTCCCGGTAATCCGTATTTGTC (site CCCGTATCTGA)
recombinant UMI read abundance (log10): 0
//
residue_sequence: GTGACGCCATGGACCGGTTTTCCCGGTAATCCGTATTTGAA (site GTGACGCCTTT)
recombinant UMI read abundance (log10): 0.0255
